# method_description: self-splicing fitness, log relative to wild type (ln ratio); higher = more splicing; Tetrahymena group I intron in knt gene, E. coli kanamycin selection, DiMSum; sequences stand for … in CUCUCU…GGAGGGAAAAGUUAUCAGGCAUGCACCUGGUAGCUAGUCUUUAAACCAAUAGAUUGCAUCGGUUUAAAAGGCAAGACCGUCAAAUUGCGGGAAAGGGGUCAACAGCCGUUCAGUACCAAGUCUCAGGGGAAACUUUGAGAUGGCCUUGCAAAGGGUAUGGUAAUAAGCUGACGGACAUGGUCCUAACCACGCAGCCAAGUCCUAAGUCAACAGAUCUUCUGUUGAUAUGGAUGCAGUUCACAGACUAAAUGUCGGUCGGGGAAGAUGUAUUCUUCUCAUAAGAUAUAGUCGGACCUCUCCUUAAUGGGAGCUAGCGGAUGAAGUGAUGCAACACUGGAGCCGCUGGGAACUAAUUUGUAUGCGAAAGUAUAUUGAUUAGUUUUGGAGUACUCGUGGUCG;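 further: selection with 25 µg/mL kanamycin versus none on LB agar overnight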
# cond: 37 °C
Listing of entries alongside the reported self-splicing fitness (ln).

>  <entry_sequence>
CGCGAGCAAUAUUACGCAGC

>  <self-splicing fitness (ln)>
-1.99

$$$$
>  <entry_sequence>
GAAGAGCAAUAUUACGGGCU

>  <self-splicing fitness (ln)>
-3.07

$$$$
>  <entry_sequence>
CGGCAGCAAUAUUACGAGGA

>  <self-splicing fitness (ln)>
-2.28

$$$$
>  <entry_sequence>
AGUAAGCAAUAUUACGUAAA

>  <self-splicing fitness (ln)>
-1.75

$$$$
>  <entry_sequence>
GAAGAGCAAUAUUACGGCUG

>  <self-splicing fitness (ln)>
-1.22

$$$$
>  <entry_sequence>
UUACAGCAAUAUUACGAUUU

>  <self-splicing fitness (ln)>
-0.22

$$$$
>  <entry_sequence>
GGGAAGCAAUAUUACGGUUA

>  <self-splicing fitness (ln)>
-0.726

$$$$
>  <entry_sequence>
GUCAAGCAAUAUUACGACAG

>  <self-splicing fitness (ln)>
-2.93

$$$$
>  <entry_sequence>
UGCCAGCAAUAUUACGGACU

>  <self-splicing fitness (ln)>
0.139

$$$$
>  <entry_sequence>
UAAGAGCAAUAUUACGAGAU

>  <self-splicing fitness (ln)>
-2.32

$$$$
>  <entry_sequence>
CAAGAGCAAUAUUACGCGCG

>  <self-splicing fitness (ln)>
-0.891

$$$$
>  <entry_sequence>
CCAUAGCAAUAUUACGCUUA

>  <self-splicing fitness (ln)>
-3.5

$$$$
>  <entry_sequence>
AGCCAGCAAUAUUACGGCGC

>  <self-splicing fitness (ln)>
-0.844

$$$$
>  <entry_sequence>
UUUAAGCAAUAUUACGCACU

>  <self-splicing fitness (ln)>
-0.128

$$$$
>  <entry_sequence>
AUUAAGCAAUAUUACGUCUG

>  <self-splicing fitness (ln)>
-0.762

$$$$
>  <entry_sequence>
GACAAGCAAUAUUACGUAUC

>  <self-splicing fitness (ln)>
-0.876

$$$$
>  <entry_sequence>
GACUAGCAAUAUUACGCCGU

>  <self-splicing fitness (ln)>
-0.995

$$$$
>  <entry_sequence>
CCAAAGCAAUAUUACGGGCU

>  <self-splicing fitness (ln)>
-3.3

$$$$
>  <entry_sequence>
AGCGAGCAAUAUUACGGCAA

>  <self-splicing fitness (ln)>
-1.71

$$$$
>  <entry_sequence>
AAGAAGCAAUAUUACGCUAG

>  <self-splicing fitness (ln)>
-0.458

$$$$
>  <entry_sequence>
GUUGAGCAAUAUUACGUUAC

>  <self-splicing fitness (ln)>
-2.21

$$$$
>  <entry_sequence>
AUGUAGCAAUAUUACGGCUG

>  <self-splicing fitness (ln)>
-2.27

$$$$
>  <entry_sequence>
UCUUAGCAAUAUUACGGGCG

>  <self-splicing fitness (ln)>
-0.448

$$$$
>  <entry_sequence>
CAAUAGCAAUAUUACGGGGA

>  <self-splicing fitness (ln)>
-2.61

$$$$
>  <entry_sequence>
GGUUAGCAAUAUUACGCAUU

>  <self-splicing fitness (ln)>
-0.185

$$$$
>  <entry_sequence>
UACAAGCAAUAUUACGAAGC

>  <self-splicing fitness (ln)>
-2.74

$$$$
>  <entry_sequence>
UUAGAGCAAUAUUACGUUCU

>  <self-splicing fitness (ln)>
-2.92

$$$$
>  <entry_sequence>
CGACAGCAAUAUUACGCGGU

>  <self-splicing fitness (ln)>
-2.85

$$$$
>  <entry_sequence>
CAUCAGCAAUAUUACGGCAC

>  <self-splicing fitness (ln)>
-2.56

$$$$
>  <entry_sequence>
GUAUAGCAAUAUUACGCUCU

>  <self-splicing fitness (ln)>
-1.23

$$$$
>  <entry_sequence>
ACGAAGCAAUAUUACGUGUU

>  <self-splicing fitness (ln)>
-1.81

$$$$
>  <entry_sequence>
GGUGAGCAAUAUUACGAACC

>  <self-splicing fitness (ln)>
-2.72

$$$$
>  <entry_sequence>
UCCUAGCAAUAUUACGCACU

>  <self-splicing fitness (ln)>
-0.784

$$$$
>  <entry_sequence>
ACACAGCAAUAUUACGGGCA

>  <self-splicing fitness (ln)>
-0.0778

$$$$
>  <entry_sequence>
GCACAGCAAUAUUACGGGGC

>  <self-splicing fitness (ln)>
-2.62

$$$$
>  <entry_sequence>
AGUAAGCAAUAUUACGUACA

>  <self-splicing fitness (ln)>
0.0596

$$$$
>  <entry_sequence>
CGAUAGCAAUAUUACGAUGU

>  <self-splicing fitness (ln)>
-0.614

$$$$
>  <entry_sequence>
AGUUAGCAAUAUUACGGGCU

>  <self-splicing fitness (ln)>
-1.79

$$$$
>  <entry_sequence>
UCUGAGCAAUAUUACGCUUU

>  <self-splicing fitness (ln)>
-3.19

$$$$
>  <entry_sequence>
CGCGAGCAAUAUUACGGAAA

>  <self-splicing fitness (ln)>
-2.24

$$$$
>  <entry_sequence>
CAAGAGCAAUAUUACGUGUC

>  <self-splicing fitness (ln)>
-3.11

$$$$
>  <entry_sequence>
GUCAAGCAAUAUUACGACAU

>  <self-splicing fitness (ln)>
-0.579

$$$$
>  <entry_sequence>
AAGAAGCAAUAUUACGGCAU

>  <self-splicing fitness (ln)>
-0.43

$$$$
>  <entry_sequence>
UACGAGCAAUAUUACGUUUG

>  <self-splicing fitness (ln)>
-1.94

$$$$
>  <entry_sequence>
AGGGAGCAAUAUUACGAGAC

>  <self-splicing fitness (ln)>
-2.77

$$$$
>  <entry_sequence>
ACCAAGCAAUAUUACGAUGC

>  <self-splicing fitness (ln)>
-0.944

$$$$
>  <entry_sequence>
UGGCAGCAAUAUUACGAUGG

>  <self-splicing fitness (ln)>
-1.67

$$$$
>  <entry_sequence>
CGGCAGCAAUAUUACGACUG

>  <self-splicing fitness (ln)>
-0.611

$$$$
>  <entry_sequence>
UGACAGCAAUAUUACGUUGG

>  <self-splicing fitness (ln)>
-1.82

$$$$
>  <entry_sequence>
AUUAAGCAAUAUUACGAGAA

>  <self-splicing fitness (ln)>
-1.08

$$$$
>  <entry_sequence>
CGUCAGCAAUAUUACGGACA

>  <self-splicing fitness (ln)>
0.394

$$$$
